- Test system: SARS-CoV-2
- Assay method text: Inhibition of cell viability relative to arbidol control (inhibition index > 1 indicates higher activity) measured by fluorescence (OD590nm) in Vero E6 cells infected with SARS-CoV-2 (strain BavPat1) at MOI 0.002 after 72hrs
- Format: functional, Chlorocebus sabaeus, Vero C1008
Over roughly 1,500 compounds, “Inhibition index” has its median near 0.17; the highest 2% begin near 1.3. Shown is part of a subset that was picked to be rich in the highest values.
Recorded metric: Inhibition index
// print number alone

As a guide, the following entries are already answered.
Compound	Inhibition index
O=C1O[C@H]([C@@H](O)CO)C(O)=C1O [ASCORBIC ACID]	0.2513
CC(C)(C(=O)O)c1ccc(C(O)CCCN2CCC(C(O)(c3ccccc3)c3ccccc3)CC2)cc1.Cl (stereo unspecified) [FEXOFENADINE HYDROCHLORIDE]	0.6767
C#C[C@]1(OC(C)=O)CC[C@H]2[C@@H]3CCC4=CC(=NO)CC[C@@H]4[C@H]3CC[C@@]21CC	-0.3327

[Q] Return reported Inhibition index; argument: CN(C)CCC(c1ccccc1)c1ccccn1.O=C(O)/C=C\C(=O)O (stereo unspecified) [PHENIRAMINE MALEATE]
[A] 0.01395

[Q] Return reported Inhibition index; argument: CC(C)=C/C(C)=N/Nc1nncc2ccccc12 [BUDRALAZINE]
[A] 1.549

[Q] Return reported Inhibition index; argument: C[C@]12CC[C@@H]3c4ccc(O)cc4C[C@@H](CCCCCCCCC[S+]([O-])CCCC(F)(F)C(F)(F)F)[C@H]3[C@@H]1CC[C@@H]2O (stereo partly specified) [FULVESTRANT]
[A] 0.187

[Q] Return reported Inhibition index; argument: CN1CCN(C(c2ccccc2)c2ccccc2)CC1.Cl [CYCLIZINE HYDROCHLORIDE]
[A] 0.3956

[Q] Return reported Inhibition index; argument: CNC(=C[N+](=O)[O-])NCCSCc1ccc(CN(C)C)o1.Cl [RANITIDINE HYDROCHLORIDE]
[A] 0.09309

[Q] Return reported Inhibition index; argument: CN(C)CCCN1c2ccccc2Sc2ccccc21.Cl [PROMAZINE HYDROCHLORIDE]
[A] 1.161

[Q] Return reported Inhibition index; argument: C=C1CC[C@@]2(O)[C@H]3Cc4ccc(O)c5c4[C@@]2(CCN3CC2CC2)[C@H]1O5.Cl [NALMEFENE HYDROCHLORIDE]
[A] 1.653

----------
- System: SARS-CoV-2
- Assay method text: Inhibition of cell viability relative to arbidol control (inhibition index > 1 indicates higher activity) measured by fluorescence (OD590nm) in Vero E6 cells infected with SARS-CoV-2 (strain BavPat1) at MOI 0.002 after 72hrs
- Type: functional, Chlorocebus sabaeus, Vero C1008
In all, about 1,500 compounds were measured (“Inhibition index”: median about 0.17, highest 2% from about 1.3 on). Shown is part of a subset that was picked to be rich in the highest values.
Okay, here is how we bin by Inhibition index: bottom (below 0.1), middle (0.1 to below 0.5), top (0.5 or more)

Molecule	Discrete label
CCC(=O)O[C@]1(C(=O)CCl)[C@@H](C)C[C@H]2[C@@H]3CCC4=CC(=O)C=C[C@]4(C)[C@@]3(F)[C@@H](O)C[C@@]21C [CLOBETASOL PROPIONATE]	middle
N[C@H]1CONC1=O	top
Nc1nc(/C(=C/CC(=O)O)C(=O)N[C@@H]2C(=O)N3C(C(=O)O)=CCS[C@H]23)cs1	bottom
COc1ccc(-c2noc(CC(=O)O)c2-c2ccc(OC)cc2)cc1	middle
CC(=O)OCC(=O)[C@@]12OC3(CCCC3)O[C@@H]1C[C@H]1[C@@H]3CCC4=CC(=O)C=C[C@]4(C)[C@@]3(F)[C@@H](O)C[C@@]12C [AMCINONIDE]	top

[Q] Which class is correct for the following molecule? Nc1ncnc2c1ncn2[C@@H]1O[C@H](COP(=O)(O)O)[C@@H](O)[C@H]1O.O
[A] middle

[Q] Which class is correct for the following molecule? CCOc1ccc2ccccc2c1C(=O)N[C@@H]1C(=O)N2[C@@H]1SC(C)(C)[C@@H]2C(=O)[O-].O.[Na+] [NAFCILLIN SODIUM]
[A] middle

[Q] Which class is correct for the following molecule? N[C@@H]1CONC1=O
[A] top

[Q] Which class is correct for the following molecule? CS(=O)(=O)O.Cc1ccc2c(c1)c1c3n2CCNC3CCC1 (stereo not drawn)
[A] top

[Q] Which class is correct for the following molecule? CCCSS/C(CCO)=C(\C)N(C=O)Cc1cnc(C)nc1N
[A] middle

[Q] Which class is correct for the following molecule? C[C@]12COC(=O)C[C@@H]1CC[C@@H]1[C@@H]2CC[C@@]2(C)[C@H]1CC[C@]2(C)O
[A] middle

[Q] Which class is correct for the following molecule? CC(=O)O[C@H]1C[C@@H]2CC[C@@H]3[C@H](CC[C@@]4(C)[C@H]3C[C@H]([N+]3(C)CCCCC3)[C@@H]4OC(C)=O)[C@@]2(C)C[C@@H]1[N+]1(C)CCCCC1.[Br-].[Br-] [PANCURONIUM BROMIDE]
[A] bottom

[Q] Which class is correct for the following molecule? C/C(=C(/CCO)SSCC1CCCO1)N(C=O)Cc1cnc(C)nc1N.Cl (stereo not drawn)
[A] top

[Q] Which class is correct for the following molecule? CN(C)[C@@H]1C(O)=C(C(N)=O)C(=O)[C@@]2(O)C(O)=C3C(=O)c4c(O)ccc(Cl)c4[C@@](C)(O)[C@H]3C[C@@H]12.Cl [CHLORTETRACYCLINE HYDROCHLORIDE]
[A] bottom

[Q] Which class is correct for the following molecule? CC(=O)OCC(=O)[C@@]1(O)CC[C@H]2[C@@H]3CCC4=CC(=O)CC[C@]4(C)[C@H]3[C@@H](O)C[C@@]21C [HYDROCORTISONE ACETATE]
[A] middle

[Q] Which class is correct for the following molecule? C[C@]12C/C(=C\O)C(=O)C[C@@H]1CC[C@@H]1[C@@H]2CC[C@@]2(C)[C@H]1CC[C@]2(C)O
[A] top

----------
- Test system: SARS-CoV-2
- Assay method text: Inhibition of cell viability relative to arbidol control (inhibition index > 1 indicates higher activity) measured by fluorescence (OD590nm) in Vero E6 cells infected with SARS-CoV-2 (strain BavPat1) at MOI 0.002 after 72hrs
- Format: functional, Chlorocebus sabaeus, Vero C1008
Over roughly 1,500 compounds, “Inhibition index” has its median near 0.17; the highest 2% begin near 1.3. The full list was thinned out, with the highest values kept by preference.
# strict inequality: Inhibition index < 0.3 yields met, everything else yields not met

Compound	Discrete label
NC(=O)c1cc[n+](CC2=C(C(=O)O)N3C(=O)[C@@H](NC(=O)[C@@H](c4ccccc4)S(=O)(=O)O)[C@H]3SC2)cc1.O.[Na+]	met
CC1(C)S[C@@H]2[C@H](NC(=O)C(C(=O)O)c3ccsc3)C(=O)N2[C@H]1C(=O)[O-].[Na+] (stereo partly specified)	met
CC(C)(C)NC(=O)[C@H]1CC[C@H]2[C@@H]3CC[C@H]4NC(=O)C=C[C@]4(C)[C@H]3CC[C@]12C [FINASTERIDE]	met

[Q] Dear colleague, could you confirm whether Inhibition index of CC1=C(C(=O)O)N2C(=O)[C@@H](NC(=O)[C@H](N)c3ccc(O)cc3)[C@H]2SC1 [CEFADROXIL] falls below 0.3? Thanks.
[A] met

[Q] Dear colleague, could you confirm whether Inhibition index of CC(C)OC(=O)CCC/C=C\C[C@H]1[C@H](CC[C@@H](O)CCc2ccccc2)[C@@H](O)C[C@H]1O falls below 0.3? Thanks.
[A] met

[Q] Dear colleague, could you confirm whether Inhibition index of CC[C@H]1OC(=O)[C@H](C)[C@@H](O[C@H]2C[C@@](C)(OC)[C@@H](O)[C@H](C)O2)[C@H](C)[C@@H](O[C@@H]2O[C@H](C)C[C@H](N(C)C)[C@H]2O)[C@](C)(OC)C[C@@H](C)C(=O)[C@H](C)[C@@H](O)[C@]1(C)O [CLARITHROMYCIN] falls below 0.3? Thanks.
[A] not met

----------
- Test system: SARS-CoV-2
- Assay method text: Inhibition of cell viability relative to arbidol control (inhibition index > 1 indicates higher activity) measured by fluorescence (OD590nm) in Vero E6 cells infected with SARS-CoV-2 (strain BavPat1) at MOI 0.002 after 72hrs
- Assay type: functional, Chlorocebus sabaeus, Vero C1008
Whole data set: some 1,500 compounds, median “Inhibition index” near 0.17, cut for the highest 2% near 1.3. The sample as a whole holds a higher share of the highest values than the screen did.
Think of 0.5 as a floor: if Inhibition index stands on it or above, it is T; beneath it, F.

Worked set:
Compound	Discrete label
CCSc1ccc2c(c1)N(CCCN1CCN(C)CC1)c1ccccc1S2.O=C(O)/C=C\C(=O)O	F
Cc1cccc(C)c1NC(=O)CC12CCCN1CCC2.Cl	F
CC(=O)OCC(=O)[C@@]12OC(C)(C)O[C@@H]1C[C@H]1[C@@H]3C[C@H](F)C4=CC(=O)C=C[C@]4(C)[C@@]3(F)[C@@H](O)C[C@@]12C [FLUOCINONIDE]	F
Nc1nc2[nH]cc(CCc3ccc(C(=O)N[C@@H](CCC(=O)[O-])C(=O)[O-])cc3)c2c(=O)[nH]1.[Na+].[Na+] [PEMETREXED DISODIUM]	F
CO[C@@H]1[C@@H](O[C@@H]2O[C@H](C)[C@@H](O[C@H]3C[C@@](C)(O)[C@@H](O)[C@H](C)O3)[C@H](N(C)C)[C@H]2O)[C@@H](CC=O)C[C@@H](C)[C@@H](O[C@H]2CC[C@H](N(C)C)[C@@H](C)O2)/C=C/C=C/C[C@@H](C)OC(=O)C[C@H]1OC(C)=O	T

Shift focus to the following entry.
[Q] Say whether CCc1c(C)[nH]c2c1C(=O)C(CN1CCOCC1)CC2.Cl (configuration not stated) [MOLINDONE HYDROCHLORIDE] shows Inhibition index of 0.5 or more.
[A] F
